# Species: Bos taurus
# ASSAY PROCEDURE: Competitive inhibition of Bovine liver MAO-B at […]
# Assay type: functional
METRIC NAME: Ki (µM)
API: value field is a number in µM; no unit string.

### Prompt // query Ki value for entry C[C@H](N)c1ccccc1
### Response 150

---

# MEASURED ON: UniProt P56560
# Sequence (P56560 whole entry): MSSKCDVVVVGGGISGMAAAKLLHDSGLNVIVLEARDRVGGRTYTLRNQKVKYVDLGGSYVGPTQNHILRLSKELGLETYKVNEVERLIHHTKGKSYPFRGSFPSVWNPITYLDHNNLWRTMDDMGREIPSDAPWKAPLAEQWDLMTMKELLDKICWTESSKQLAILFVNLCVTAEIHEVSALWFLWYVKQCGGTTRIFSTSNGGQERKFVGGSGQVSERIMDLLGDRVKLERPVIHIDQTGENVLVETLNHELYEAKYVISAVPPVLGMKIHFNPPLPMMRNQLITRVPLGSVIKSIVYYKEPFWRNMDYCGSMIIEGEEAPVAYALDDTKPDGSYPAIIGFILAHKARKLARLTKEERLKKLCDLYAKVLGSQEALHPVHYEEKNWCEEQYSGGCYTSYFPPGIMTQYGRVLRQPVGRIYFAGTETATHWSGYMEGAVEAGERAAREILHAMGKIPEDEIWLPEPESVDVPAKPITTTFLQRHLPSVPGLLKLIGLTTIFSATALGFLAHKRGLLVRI
# ASSAY PROCEDURE: In vitro inhibition of bovine monoamine oxidase B.
Assignment: determine reported pKi for the given compounds.
Remember the convention: pKi equals -log10 of concentration in molar.

### Prompt Find the recorded pKi belonging to CC=C=CCN(C)[C@@H](C)c1ccccc1 (stereo in doubt) and report it.
### Response 2.96

### Prompt How about CC=C=CCN(C)C[C@@H](C)c1ccccc1 (mixture of isomers) ?
### Response 3.16

### Prompt Please answer likewise for CC=C=CCN(C)CCc1ccccc1 (stereo in doubt; 4 (S))
### Response 3.19

### Prompt CC=C=CCN(C)[C@@H]1CCCc2ccccc21 (mixture of isomers) ?
### Response 3.60

### Prompt Next compound: CC=C=CCN(C)[C@H](C)c1ccccc1 (mixture of isomers)
### Response 2.74

### Prompt Next compound up: CC=C=CCN(C)[C@H](C)c1ccccc1 (stereo in doubt)
### Response 3.14

### Prompt Request: CC=C=CCN(C)Cc1ccccc1.O=C(O)C(=O)O (stereo in doubt; 2 (S))
### Response 3.09

### Prompt Then CC=C=CCN(C)[C@H]1CCCc2ccccc21 (stereo in doubt) ?
### Response 3.82

### Prompt Entry to check: C[C@@H](N)c1ccccc1
### Response 3.72

### Prompt And CC=C=CCN(C)[C@@H]1CCCc2ccccc21 (stereo in doubt) ?
### Response 3.70

### Prompt Same question for CC=C=CCN(C)C (stereo in doubt; 1 (S)) please.
### Response 4.00

### Prompt Thanks! And CC=C=CCN(C)C[C@H](C)c1ccccc1 (mixture of isomers) ?
### Response 3.74

### Prompt Proceed to CC=C=CCN(C)CCc1ccccc1 (stereo in doubt; 4 (R))
### Response 3.37

### Prompt Input CC=C=CCN(C)[C@H]1CCCc2ccccc21 (mixture of isomers)
### Response 3.82

### Prompt Consider next the compound CC=C=CCN(C)[C@@H](C)c1ccccc1 (mixture of isomers) in the same way.
### Response 2.59

### Prompt Repeat for the following compound: CC=C=CCN(C)C (stereo in doubt; 1 (R))
### Response 4.23

### Prompt Can you check CC=C=CCN(C)Cc1ccccc1.O=C(O)C(=O)O (stereo in doubt; 2 (R)) next?
### Response 3.70

The values you see were collected from ChEMBL document CHEMBL1124175.
